- SYSTEM_UNDER_TEST: HiBit-BRG1 fusion protein in stable HeLa cell line expressing HiBit-BRG1 and LgBit (Homo sapiens, UniProt P51532)
- Construct: expressed in transfected cells
- Sequence (P51532 whole entry, the tested form may be a part): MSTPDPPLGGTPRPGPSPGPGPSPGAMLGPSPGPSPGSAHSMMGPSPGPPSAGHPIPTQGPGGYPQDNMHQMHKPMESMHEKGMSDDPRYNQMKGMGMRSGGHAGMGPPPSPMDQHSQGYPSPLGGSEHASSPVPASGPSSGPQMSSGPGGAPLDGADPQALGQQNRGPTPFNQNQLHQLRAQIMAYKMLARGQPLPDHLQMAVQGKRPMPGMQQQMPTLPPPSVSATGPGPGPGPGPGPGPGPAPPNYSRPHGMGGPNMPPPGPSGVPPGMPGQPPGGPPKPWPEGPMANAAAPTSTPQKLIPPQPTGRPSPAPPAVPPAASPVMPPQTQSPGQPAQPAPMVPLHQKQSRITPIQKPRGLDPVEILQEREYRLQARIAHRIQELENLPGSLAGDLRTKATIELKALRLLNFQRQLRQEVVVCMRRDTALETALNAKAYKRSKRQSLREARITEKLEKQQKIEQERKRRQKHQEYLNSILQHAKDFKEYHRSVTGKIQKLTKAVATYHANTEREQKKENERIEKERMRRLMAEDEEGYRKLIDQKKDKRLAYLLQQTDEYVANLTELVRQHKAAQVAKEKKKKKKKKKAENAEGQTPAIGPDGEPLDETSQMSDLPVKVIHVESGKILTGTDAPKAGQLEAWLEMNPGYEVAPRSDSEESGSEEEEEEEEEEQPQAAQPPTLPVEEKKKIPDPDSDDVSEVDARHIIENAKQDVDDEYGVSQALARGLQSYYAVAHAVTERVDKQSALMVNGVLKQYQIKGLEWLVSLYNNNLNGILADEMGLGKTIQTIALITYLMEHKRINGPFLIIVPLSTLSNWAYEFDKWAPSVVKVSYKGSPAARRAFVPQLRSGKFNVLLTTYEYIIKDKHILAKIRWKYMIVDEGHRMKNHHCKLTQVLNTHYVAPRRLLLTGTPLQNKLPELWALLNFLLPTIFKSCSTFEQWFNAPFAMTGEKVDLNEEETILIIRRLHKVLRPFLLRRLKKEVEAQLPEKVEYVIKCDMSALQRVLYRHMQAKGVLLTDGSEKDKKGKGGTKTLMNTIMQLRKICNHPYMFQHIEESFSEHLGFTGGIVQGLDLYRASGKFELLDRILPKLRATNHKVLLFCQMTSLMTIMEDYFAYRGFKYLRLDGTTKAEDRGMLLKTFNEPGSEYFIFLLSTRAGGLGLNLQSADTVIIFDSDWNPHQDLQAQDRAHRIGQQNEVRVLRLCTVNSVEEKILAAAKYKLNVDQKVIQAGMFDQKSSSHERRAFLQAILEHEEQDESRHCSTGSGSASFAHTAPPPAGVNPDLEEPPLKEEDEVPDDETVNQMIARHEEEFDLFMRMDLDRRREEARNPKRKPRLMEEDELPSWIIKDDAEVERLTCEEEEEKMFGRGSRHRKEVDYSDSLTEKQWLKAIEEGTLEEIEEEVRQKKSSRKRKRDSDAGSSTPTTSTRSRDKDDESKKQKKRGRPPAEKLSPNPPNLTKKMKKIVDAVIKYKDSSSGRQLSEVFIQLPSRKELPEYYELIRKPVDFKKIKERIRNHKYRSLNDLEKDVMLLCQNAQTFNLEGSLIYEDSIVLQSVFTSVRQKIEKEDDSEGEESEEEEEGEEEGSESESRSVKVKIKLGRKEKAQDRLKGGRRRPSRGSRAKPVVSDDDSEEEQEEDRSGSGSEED
- TEST_DETAILS: HiBiT-BRG1 cell-based degradation assay (Nano-Glo HiBiT, 24 h)
- TEST_SETTINGS: HeLa HiBit-BRG1/LgBit cells, top dose 30 μM, read-out: BRG1 HiBit Degradation Maximum (%)
- Protocol: Procedure: A stable HeLa cell line expressing HiBiT-BRM was generated. On day 0, 5000 cells were seeded in 40 μL of media into each well of 384-well cell culture plates. […] The plates were shaken for 10 minutes at room temperature and the bioluminescence read using an EnVision plate reader (PerkinElmer). […] The degradation % was calculated using the following formula: % degradation=100%−100%×(Lumsample−LumLC)/(LumHC−LumLC). […]
ASSAY_ENDPOINT: Dmax

# input Determine from records and report Dmax for CC(C)C(C(=O)N1C[C@H](O)C[C@H]1C(=O)NCC12CC(C1)C2)c1cc(N2CC3(CN(c4ccc5cc(-c6ccccc6O)nnc5c4)C3)C2)no1 (some centres unmarked) [Compound 119]
# output < 50%

# input Using known records, supply Dmax for Cc1ncsc1-c1ccc([C@H](C)NC(=O)[C@@H]2C[C@@H](O)CN2C(=O)[C@@H](c2cc(N3CCC(CN4CC(c5ccc6cc(-c7ccccc7O)nnc6c5)C4)CC3)no2)C(C)C)cc1 [Compound 9]
# output < 50%

# input Name the recorded Dmax of the item Cc1ncsc1-c1ccc([C@H](C)NC(=O)[C@@H]2C[C@@H](O)CN2C(=O)[C@@H](c2cc(N3CCC4(CC3)CC(Oc3ccc5cc(-c6ccccc6O)nnc5c3)C4)no2)C(C)C)cc1 [Compound 78] in your answer.
# output < 50%

# input Respond only with Dmax recorded for C#Cc1cc2cc(-c3ccccc3O)nnc2cc1N1CC2(CN(c3cc([C@H](C(=O)N4C[C@H](O)C[C@H]4C(=O)N[C@@H](C)c4ccc(-c5scnc5C)cc4)C(C)C)on3)C2)C1 [Compound 239]
# output > 50%

# input Give me measured Dmax, please, for this compound: CC(C)[C@@H](C(=O)N1C[C@H](O)C[C@H]1C(=O)N[C@@H](C)c1ccc(Br)cc1)c1cc(N2CC3(CN(c4ccc5cc(-c6ccccc6O)nnc5c4)C3)C2)no1 [Compound 109]
# output < 50%

---

- SYSTEM_UNDER_TEST: HiBit-BRG1 fusion protein in stable HeLa cell line expressing HiBit-BRG1 and LgBit (Homo sapiens, UniProt P51532)
- Construct: expressed in transfected cells
- TEST_DETAILS: HiBiT-BRG1 cell-based degradation assay (Nano-Glo HiBiT, 24 h)
- TEST_SETTINGS: HeLa HiBit-BRG1/LgBit cells, read-out: BRMG1 HiBit Degradation IC50
Give measured DC50 for each item. Keep answers brief.

# input State, in one line, measured DC50 of CC(C)[C@@H](C(=O)N1C[C@H](O)C[C@H]1C(=O)N[C@@H](C)c1ccc(C#N)cc1)n1cc(N2CC3(CN(c4ccc5cc(-c6ccccc6O)nnc5c4)C3)C2)nn1
# output > 0.01 µM

# input Give DC50 for the following molecule: Cc1ncsc1-c1ccc([C@H](C)NC(=O)[C@@H]2C[C@@H](O)CN2C(=O)C(C(C)C)n2cc(N3CCC(C4CN(c5ccc6nnc(-c7ccccc7O)cc6c5)C4)C3)nn2)cc1 (some centres unmarked)
# output > 0.01 µM

# input // Input: COc1cc2nnc(-c3ccccc3O)cc2cc1C1CN(c2ncc(-c3cc([C@H](C(=O)N4C[C@H](O)C[C@H]4C(=O)N[C@@H](C)c4ccc(-c5scnc5C)cc4)C(C)C)on3)cn2)C1 . Output its DC50 only.
# output < 0.01 µM

# input Provide one value: measured DC50 of Cc1ncsc1-c1ccc([C@H](C)NC(=O)[C@@H]2C[C@@H](O)CN2C(=O)[C@@H](c2cc(-c3cnc(N4CC5(CN(c6ccc7cc(-c8ccccc8O)nnc7c6)C5)C4)nc3)no2)C(C)C)cc1
# output < 0.01 µM

# input Please list DC50 recorded for the molecule Cc1ncsc1-c1ccc([C@H](C)NC(=O)[C@@H]2C[C@@H](O)CN2C(=O)[C@H](C(C)C)n2cc(-c3ccc4nnc(-c5cccc(F)c5O)cc4c3)nn2)cc1
# output < 0.01 µM

---

- SYSTEM_UNDER_TEST: HiBit-BRG1 fusion protein in stable HeLa cell line expressing HiBit-BRG1 and LgBit (Homo sapiens)
- Construct: expressed in transfected cells
- TEST_DETAILS: HiBiT-BRG1 cell-based degradation assay (Nano-Glo HiBiT, 24 h)
- TEST_SETTINGS: HeLa HiBit-BRG1/LgBit cells, read-out: BRMG1 HiBit Degradation IC50
Hi there, I'd appreciate the recorded DC50 for every entry that follows.

# input Let me know recorded DC50 for Cc1ncsc1-c1ccc([C@H](C)NC(=O)[C@@H]2C[C@@H](O)CN2C(=O)[C@@H](c2cc(N3CC4=C(CN(c5ccc6cc(-c7ccccc7O)nnc6c5)C4)C3)no2)C(C)C)cc1 , thanks.
# output < 10 nM

# input Answer with the recorded DC50 of C#Cc1cc2cc(-c3ccccc3O)nnc2cc1N1CC2(CN(c3cc([C@H](C(=O)N4C[C@H](O)C[C@H]4C(=O)N[C@@H](C)c4ccc(-c5scnc5C)cc4)C(C)C)on3)C2)C1 only.
# output > 10 nM

# input Retrieve DC50 measured for Cc1ncsc1-c1ccc([C@H](C)NC(=O)[C@@H]2C[C@@H](O)CN2C(=O)C(c2cc(N3CCC4(CCC(c5ccc6nnc(-c7ccccc7O)cc6c5)CC4)CC3)no2)C(C)C)cc1 (stereo in doubt) and print it.
# output < 10 nM

---

- SYSTEM_UNDER_TEST: HiBit-BRG1 fusion protein in stable HeLa cell line expressing HiBit-BRG1 and LgBit (Homo sapiens, UniProt P51532)
- Construct: expressed in transfected cells
- TEST_DETAILS: HiBiT-BRG1 cell-based degradation assay (Nano-Glo HiBiT, 24 h)
- TEST_SETTINGS: HeLa HiBit-BRG1/LgBit cells, read-out: BRMG1 HiBit Degradation IC50
Provide the recorded DC50 for the entries that follow.

# input Complete the entry with DC50 for Cc1ncsc1-c1ccc([C@H](C)NC(=O)[C@@H]2C[C@@H](O)CN2C(=O)[C@@H](c2cc(N3CCC4(CC[C@@H](c5ccc6nnc(-c7ccccc7O)cc6c5)C4)CC3)no2)C(C)C)cc1
# output > 0.01 µM

# input Look up DC50 of Cc1ncsc1-c1ccc([C@H](C)NC(=O)[C@@H]2C[C@@H](O)CN2C(=O)[C@@H](c2cc(-c3ccc4nnc(-c5ccccc5O)cc4c3)no2)C(C)C)cc1 and report it.
# output < 0.01 µM

# input Answer with the recorded DC50 of Cc1ncsc1-c1ccc([C@H](C)NC(=O)[C@@H]2C[C@@H](O)CN2C(=O)C(C(C)C)n2cc(N3CCC4(CC3)CCN4c3ccc4cc(-c5ccccc5O)nnc4c3)nn2)cc1 (stereo partly drawn) only.
# output > 0.01 µM

---

Assignment: determine reported DC50 for the given molecules.
- SYSTEM_UNDER_TEST: HiBiT-BRM fusion protein in stable HeLa cell line (Homo sapiens)
- Construct: expressed in transfected cells
- Sequence (P51531 whole entry, the tested form may be a part): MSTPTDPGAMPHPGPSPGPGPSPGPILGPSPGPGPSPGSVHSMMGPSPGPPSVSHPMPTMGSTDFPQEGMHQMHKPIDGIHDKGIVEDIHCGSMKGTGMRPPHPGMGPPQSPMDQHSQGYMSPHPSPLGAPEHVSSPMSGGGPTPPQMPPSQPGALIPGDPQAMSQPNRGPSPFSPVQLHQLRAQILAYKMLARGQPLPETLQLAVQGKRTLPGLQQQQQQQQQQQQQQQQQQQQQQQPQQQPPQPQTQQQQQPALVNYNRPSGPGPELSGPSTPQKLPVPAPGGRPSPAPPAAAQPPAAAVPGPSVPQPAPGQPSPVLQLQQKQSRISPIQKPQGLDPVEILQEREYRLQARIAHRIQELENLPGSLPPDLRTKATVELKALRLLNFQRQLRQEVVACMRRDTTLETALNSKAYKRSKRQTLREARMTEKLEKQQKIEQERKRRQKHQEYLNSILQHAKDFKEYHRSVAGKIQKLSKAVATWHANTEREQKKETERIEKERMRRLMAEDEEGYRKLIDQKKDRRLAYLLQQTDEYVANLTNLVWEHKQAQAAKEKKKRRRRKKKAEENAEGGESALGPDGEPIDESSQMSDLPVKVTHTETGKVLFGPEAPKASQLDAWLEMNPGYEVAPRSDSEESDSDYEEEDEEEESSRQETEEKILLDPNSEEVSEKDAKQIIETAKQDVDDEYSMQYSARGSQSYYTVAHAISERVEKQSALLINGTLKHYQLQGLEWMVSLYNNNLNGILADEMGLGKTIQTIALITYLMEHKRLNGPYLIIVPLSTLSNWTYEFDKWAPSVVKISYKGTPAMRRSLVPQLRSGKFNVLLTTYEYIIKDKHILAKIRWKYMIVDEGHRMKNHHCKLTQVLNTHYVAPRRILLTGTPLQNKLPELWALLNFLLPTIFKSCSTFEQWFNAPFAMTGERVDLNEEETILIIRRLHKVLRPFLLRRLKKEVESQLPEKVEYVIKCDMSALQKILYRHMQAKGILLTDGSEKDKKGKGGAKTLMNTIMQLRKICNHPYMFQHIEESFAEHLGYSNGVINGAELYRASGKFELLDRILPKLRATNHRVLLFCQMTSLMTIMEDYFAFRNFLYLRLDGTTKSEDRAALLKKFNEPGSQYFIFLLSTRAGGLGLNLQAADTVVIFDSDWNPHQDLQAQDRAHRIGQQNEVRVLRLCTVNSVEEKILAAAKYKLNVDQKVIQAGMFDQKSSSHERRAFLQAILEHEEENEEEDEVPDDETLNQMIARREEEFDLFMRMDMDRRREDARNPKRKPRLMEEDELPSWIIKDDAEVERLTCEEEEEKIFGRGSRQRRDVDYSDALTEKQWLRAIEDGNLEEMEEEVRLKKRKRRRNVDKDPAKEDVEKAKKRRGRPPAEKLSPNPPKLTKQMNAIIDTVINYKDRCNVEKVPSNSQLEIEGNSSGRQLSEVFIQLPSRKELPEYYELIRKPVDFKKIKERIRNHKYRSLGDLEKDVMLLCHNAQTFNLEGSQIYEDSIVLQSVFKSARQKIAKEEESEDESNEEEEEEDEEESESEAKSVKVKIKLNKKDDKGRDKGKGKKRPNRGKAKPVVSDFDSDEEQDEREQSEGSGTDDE
- TEST_DETAILS: HiBiT-BRM cell-based degradation assay (Nano-Glo HiBiT Lytic Detection, 24 h)
- Set-up: scale not given here
- TEST_SETTINGS: HeLa HiBiT-BRM cells, read-out: BRM HiBit Degradation IC50

# input Report DC50 for CC(C)[C@@H](C(=O)N1C[C@H](O)C[C@H]1C(=O)N[C@@H](C)c1ccccc1)c1cc(N2CC[C@@H](c3ccc4cc(-c5ccccc5O)nnc4c3)C2)no1 [Compound 116]
# output < 10 nM

# input Determine from records and report DC50 for C#Cc1cc(N2CC3(C2)CN(c2cc([C@H](C(=O)N4C[C@H](O)C[C@H]4C(=O)N[C@@H](C)c4ccc(-c5scnc5C)cc4)C(C)C)on2)C3)cc2nnc(-c3ccccc3O)cc12 [Compound 240]
# output < 10 nM

# input Please supply the value of reported DC50 for the item COc1cc2nnc(-c3ccccc3O)cc2cc1C1CN(c2ncc(-c3cc([C@@H](C(=O)N4C[C@H](O)C[C@H]4C(=O)N[C@@H](C)c4ccc(-c5scnc5C)cc4)C(C)C)on3)cn2)C1 [Compound 23]
# output > 10 nM

---

- SYSTEM_UNDER_TEST: HiBit-BRG1 fusion protein in stable HeLa cell line expressing HiBit-BRG1 and LgBit (Homo sapiens, UniProt P51532)
- Construct: expressed in transfected cells
- TEST_DETAILS: HiBiT-BRG1 cell-based degradation assay (Nano-Glo HiBiT, 24 h)
- TEST_SETTINGS: HeLa HiBit-BRG1/LgBit cells, read-out: BRMG1 HiBit Degradation IC50
ASSAY_ENDPOINT: DC50

# input Supply reported DC50 belonging to this compound: Cc1ncsc1-c1ccc([C@H](C)NC(=O)[C@@H]2C[C@@H](O)CN2C(=O)[C@@H](c2cc(N3CC4(CC(c5ccc6nnc(-c7ccccc7O)cc6c5)C4)C3)no2)C(C)C)cc1 [Compound 48]
# output < 10 nM

# input Please look at this compound and report its DC50: Cc1ncsc1-c1ccc([C@H](C)NC(=O)[C@@H]2C[C@@H](O)CN2C(=O)[C@H](C(C)C)n2cc(N3CC4(CC(c5ccc6cc(-c7ccccc7O)nnc6c5)C4)C3)nn2)cc1 [Compound 212]
# output > 10 nM

# input Give recorded DC50. Cc1ncsc1-c1ccc([C@H](C)NC(=O)[C@@H]2C[C@@H](O)CN2C(=O)C(C(C)C)n2cc(N3CCCC4(CCN(c5ccc6nnc(-c7ccccc7O)cc6c5)CC4)C3)nn2)cc1 (stereo partly shown) [Compound 275]
# output > 10 nM

# input Query DC50 for Cc1ncsc1-c1ccc([C@H](C)NC(=O)[C@@H]2C[C@@H](O)CN2C(=O)C(C(C)C)n2cc(N3CCN(CN4CCN(c5ccc6nnc(-c7ccccc7O)cc6c5)CC4)CC3)nn2)cc1 (stereo partly shown) [Compound 282]
# output < 10 nM

# input Input Cc1ncsc1-c1ccc([C@H](C)NC(=O)[C@@H]2C[C@@H](O)CN2C(=O)C(c2cc(N3CCC(C4CN(c5ccc6cc(-c7ccccc7O)nnc6c5)C4)CC3)no2)C(C)C)cc1 (stereo partly shown) [Compound 225] , output reported DC50.
# output > 10 nM

# input Given the compound Cc1ncsc1-c1ccc([C@H](C)NC(=O)[C@@H]2C[C@@H](O)CN2C(=O)[C@@H](c2cn(-c3ccc4nnc(-c5ccccc5O)cc4c3)nn2)C(C)C)cc1 (single isomer, unassigned) [Compound 161] , write its reported DC50.
# output < 10 nM

# input Hello, please tell me recorded DC50 for this one: Cc1ncsc1-c1ccc([C@H](C)NC(=O)[C@@H]2C[C@@H](O)CN2C(=O)[C@@H](c2cc(N3CCN([C@H]4CCN(c5ccc6nnc(-c7ccccc7O)cc6c5)CC4(F)F)CC3)no2)C(C)C)cc1 [Compound 123]
# output < 10 nM

# input Dear colleague, please send me the reported DC50 for CC(C)[C@@H](C(=O)N1C[C@H](O)C[C@H]1C(=O)N[C@@H](C)c1ccc(Br)cc1)n1cc(-c2ccc3nnc(-c4cccc(F)c4O)cc3c2)nn1 [Compound 178] when you can.
# output > 10 nM

# input For the compound Cc1ncsc1-c1ccc([C@H](C)NC(=O)[C@@H]2C[C@@H](O)CN2C(=O)[C@@H](c2cc(N3CCC4(CC3)CC(Oc3ccc5nnc(-c6ccccc6O)cc5c3)C4)no2)C(C)C)cc1 (single isomer, unassigned) [Compound 185] , give its measured DC50 value.
# output < 10 nM

# input Output DC50 of CC(C)[C@@H](C(=O)N1C[C@H](O)C[C@H]1C(=O)N[C@@H](C)c1ccccc1)c1cc(-c2ccc3nnc(-c4ccccc4O)cc3c2)no1 [Compound 133]
# output > 10 nM

# input Using the record for Cc1ncsc1-c1ccc([C@H](C)NC(=O)[C@@H]2C[C@@H](O)CN2C(=O)[C@@H](c2cc(C3CC4(C3)CN(c3ccc5nnc(-c6ccccc6O)cc5c3)C4)no2)C(C)C)cc1 (single isomer, unassigned) [Compound 200] , state its measured DC50.
# output < 10 nM

# input Respond only with DC50 recorded for Cc1ncsc1-c1ccc([C@H](C)NC(=O)[C@@H]2C[C@@H](O)CN2C(=O)[C@@H](c2cc(-c3cnc(N4CC(c5cc6nnc(-c7ccccc7O)cc6cc5C5CC5)C4)nc3)no2)C(C)C)cc1 [Compound 68]
# output > 10 nM

# input Return DC50 for the following compound: Cc1ncsc1-c1ccc([C@H](C)NC(=O)[C@@H]2C[C@@H](O)CN2C(=O)[C@@H](c2cc(N3CCC4(CN(c5ccc6cc(-c7ccccc7O)nnc6c5)C4)C3)no2)C(C)C)cc1 [Compound 130]
# output < 10 nM

# input Retrieve DC50 measured for Cc1nc(N2CCC(c3ccc4cc(-c5ccccc5O)nnc4c3)CC2)ccc1-c1cc([C@H](C(=O)N2C[C@H](O)C[C@H]2C(=O)N[C@@H](C)c2ccc(-c3scnc3C)cc2)C(C)C)on1 [Compound 80] and print it.
# output > 10 nM

# input Answer with reported DC50 of COc1cc2cc(-c3ccccc3O)nnc2cc1N1CC2(CN(c3cc([C@H](C(=O)N4C[C@H](O)C[C@H]4C(=O)N[C@@H](C)c4ccc(-c5scnc5C)cc4)C(C)C)on3)C2)C1 [Compound 159]
# output < 10 nM

# input Look up DC50 of Cc1ncsc1-c1ccc([C@H](C)NC(=O)[C@@H]2C[C@@H](O)CN2C(=O)[C@@H](c2cc(N3CC4(CCN(c5ccc6cc(-c7ccccc7O)nnc6c5)CC4)C3)no2)C(C)C)cc1 [Compound 95] and report it.
# output < 10 nM

# input Give DC50 for Cc1ncsc1-c1ccc([C@H](C)NC(=O)[C@@H]2C[C@@H](O)CN2C(=O)[C@@H](c2cc(-c3cnc(N4CC[C@H](c5ccc6nnc(-c7ccccc7O)cc6c5)C4)nc3)no2)C(C)C)cc1 [Compound 49]
# output < 10 nM

# input Tell me DC50 reported for Cc1ncsc1-c1ccc([C@H](C)NC(=O)[C@@H]2C[C@@H](O)CN2C(=O)C(C(C)C)n2cc(N3CCC4C(C3)CN4c3ccc4cc(-c5ccccc5O)nnc4c3)nn2)cc1 (stereo partly shown) [Compound 263]
# output > 10 nM

# input Using the record for Cc1ncsc1-c1ccc([C@H](C)NC(=O)[C@@H]2C[C@@H](O)CN2C(=O)[C@@H](c2cc(N3CCC4(CCN(c5ccc6nnc(-c7ccccc7O)cc6c5)C4)CC3)no2)C(C)C)cc1 [Compound 72] , state its measured DC50.
# output > 10 nM
